- target-system: UniProtKB Q02156
- Sequence (Q02156 whole entry): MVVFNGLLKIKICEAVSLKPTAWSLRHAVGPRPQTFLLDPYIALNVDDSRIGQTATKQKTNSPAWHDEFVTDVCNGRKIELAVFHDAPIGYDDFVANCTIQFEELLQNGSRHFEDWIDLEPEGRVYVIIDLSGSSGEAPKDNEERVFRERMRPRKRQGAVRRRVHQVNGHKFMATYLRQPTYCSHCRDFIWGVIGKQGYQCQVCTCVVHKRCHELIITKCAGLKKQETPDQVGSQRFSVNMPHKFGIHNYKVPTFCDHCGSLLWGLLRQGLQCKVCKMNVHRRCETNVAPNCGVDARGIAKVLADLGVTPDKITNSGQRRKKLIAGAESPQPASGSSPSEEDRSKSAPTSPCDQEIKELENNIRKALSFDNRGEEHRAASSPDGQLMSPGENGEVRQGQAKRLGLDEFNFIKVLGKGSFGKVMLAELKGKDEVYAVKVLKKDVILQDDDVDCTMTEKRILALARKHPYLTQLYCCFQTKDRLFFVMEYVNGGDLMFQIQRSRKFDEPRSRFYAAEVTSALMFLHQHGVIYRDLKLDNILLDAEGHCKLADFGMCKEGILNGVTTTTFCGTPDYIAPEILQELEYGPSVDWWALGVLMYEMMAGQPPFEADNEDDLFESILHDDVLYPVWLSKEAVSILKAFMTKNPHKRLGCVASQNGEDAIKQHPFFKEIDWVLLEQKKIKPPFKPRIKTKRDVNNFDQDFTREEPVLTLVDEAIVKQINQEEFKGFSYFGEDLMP
- protocol: Protein kinase selectivity panel
- Type: biochemical
- assay-setup: 1.0 μM compound, 10 μM ATP
A collection of compounds and their measured Activity at Protein Kinase Assays (% of control), PKCε(h)

| compound-structure-string | target-system | measurement |
| --- | --- | --- |
| O=C1NC(=O)C2=C1c1cn(c3ccccc13)CCCc1cc(nc(N3CCCC3)c1)CCCn1cc2c2ccccc21 | UniProtKB Q02156 | 93 % of control |
| CN(C)c1nc2ccc1CCCCn1cc(c3ccccc31)C1=C(C(=O)NC1=O)c1cn(c3ccccc13)CCC2 | UniProtKB Q02156 | 72 % of control |

// sample CN(C)c1cc2cc(n1)CCCn1cc(c3ccccc31)C1=C(C(=O)NC1=O)c1cn(c3ccccc13)CCC2 , its Activity at Protein Kinase Assays (% of control), PKCε(h) was 83 % of control

// sample O=C1NC(=O)C2=C1c1cn(c3ccccc13)CCCc1ccc(c(N3CCCC3)n1)CCCn1cc2c2ccccc21 , its Activity at Protein Kinase Assays (% of control), PKCε(h) was 97 % of control

Numbers sourced from patent US7759331B2.
